A short record of pIC50 observed with Hepatocyte growth factor receptor (Homo sapiens, UniProt P08581) follows.
Sequence (P08581 whole entry): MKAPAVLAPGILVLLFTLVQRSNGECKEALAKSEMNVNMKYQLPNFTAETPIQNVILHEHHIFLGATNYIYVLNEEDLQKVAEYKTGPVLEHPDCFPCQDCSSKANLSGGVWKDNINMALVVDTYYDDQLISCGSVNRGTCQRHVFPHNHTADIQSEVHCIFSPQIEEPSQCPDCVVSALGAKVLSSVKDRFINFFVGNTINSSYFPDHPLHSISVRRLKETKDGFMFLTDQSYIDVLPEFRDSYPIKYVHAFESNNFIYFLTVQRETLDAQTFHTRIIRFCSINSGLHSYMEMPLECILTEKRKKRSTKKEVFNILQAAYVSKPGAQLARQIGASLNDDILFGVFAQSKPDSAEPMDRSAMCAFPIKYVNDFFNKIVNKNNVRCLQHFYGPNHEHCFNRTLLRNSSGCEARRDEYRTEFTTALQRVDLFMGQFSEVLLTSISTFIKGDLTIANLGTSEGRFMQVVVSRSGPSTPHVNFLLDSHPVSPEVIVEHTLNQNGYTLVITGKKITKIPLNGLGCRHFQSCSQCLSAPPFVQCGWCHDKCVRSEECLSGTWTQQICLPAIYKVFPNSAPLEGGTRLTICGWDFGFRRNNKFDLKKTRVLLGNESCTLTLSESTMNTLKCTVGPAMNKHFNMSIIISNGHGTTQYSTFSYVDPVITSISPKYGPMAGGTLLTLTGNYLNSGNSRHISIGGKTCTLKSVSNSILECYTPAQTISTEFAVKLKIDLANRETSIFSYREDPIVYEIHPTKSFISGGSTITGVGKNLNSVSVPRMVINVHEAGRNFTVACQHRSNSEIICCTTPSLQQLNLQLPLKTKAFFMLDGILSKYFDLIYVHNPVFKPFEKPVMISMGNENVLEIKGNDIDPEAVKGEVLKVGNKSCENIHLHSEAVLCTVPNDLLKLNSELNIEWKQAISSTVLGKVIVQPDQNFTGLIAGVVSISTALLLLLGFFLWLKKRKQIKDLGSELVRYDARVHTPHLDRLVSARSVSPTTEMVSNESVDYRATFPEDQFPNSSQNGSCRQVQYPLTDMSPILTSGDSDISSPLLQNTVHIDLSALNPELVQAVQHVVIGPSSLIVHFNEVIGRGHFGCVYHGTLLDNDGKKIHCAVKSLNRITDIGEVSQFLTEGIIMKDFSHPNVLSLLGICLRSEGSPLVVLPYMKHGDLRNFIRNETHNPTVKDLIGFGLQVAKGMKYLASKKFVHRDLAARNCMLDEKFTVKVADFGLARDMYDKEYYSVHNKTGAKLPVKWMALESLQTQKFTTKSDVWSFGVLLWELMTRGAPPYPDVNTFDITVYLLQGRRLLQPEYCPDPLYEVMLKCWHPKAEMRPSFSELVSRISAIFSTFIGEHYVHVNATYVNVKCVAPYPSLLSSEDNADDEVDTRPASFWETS
pIC50: −log10 of the molar value.
Metric Name: pIC50

INSERT INTO assay_data (mol, result_operator, result_value) VALUES
  ('CS(=O)(=O)Nc1ccc2c(=O)c3cc(-c4ccccc4)cnc3ccc2c1', '<', 5.00),
  ('CN(C[C@H]1COCCO1)S(=O)(=O)Nc1ccc2ccc3ncc(-c4cnn(C)c4)cc3c(=O)c2c1', '=', 7.85),
  ('CN(C[C@@H]1COCCO1)S(=O)(=O)Nc1ccc2ccc3ncc(-c4cnn(C)c4)cc3c(=O)c2c1', '=', 8.70),
  ('CS(=O)(=O)Nc1ccc2ccc3nccc(Cl)c3c(=O)c2c1', '<', 5.00);

All figures here come from ChEMBL document CHEMBL1800066.
